B1: Segment polarity protein dishevelled homolog DVL-3, residues 2 to 81; numbered along this chain, Q92997 (parent)
chain: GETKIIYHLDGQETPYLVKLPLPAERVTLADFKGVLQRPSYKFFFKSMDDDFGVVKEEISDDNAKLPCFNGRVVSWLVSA

# Variants of: B1
# test_description: abundance fitness (aPCA) (normalised: wild type 0, dead -1); higher = more abundant; growth selection in yeast, the domain comes from the species named
# reported_conditions: Homo sapiens
Reported abundance fitness by item:
Lab note: write the figure by itself, no unit.

- variant_key: "S40P"
  reported_metric: "abundance fitness"
  observed_result: -0.261

Entry C68Q needs its abundance fitness filled in; supply it. -0.189

Entry D50C needs its abundance fitness filled in; supply it. -0.263

Entry K65H needs its abundance fitness filled in; supply it. 0.091

Entry F32R needs its abundance fitness filled in; supply it. -0.543

Entry F69D needs its abundance fitness filled in; supply it. -0.352

Entry A30G needs its abundance fitness filled in; supply it. -0.045

Entry L20I needs its abundance fitness filled in; supply it. 0.101

Entry F45R needs its abundance fitness filled in; supply it. -0.669

Entry S47V needs its abundance fitness filled in; supply it. 0.269

Entry N70W needs its abundance fitness filled in; supply it. -0.634

Entry S79R needs its abundance fitness filled in; supply it. -0.31

Entry E57V needs its abundance fitness filled in; supply it. 0.254

Entry A24H needs its abundance fitness filled in; supply it. -0.505

Entry R26D needs its abundance fitness filled in; supply it. -0.027

Entry P23C needs its abundance fitness filled in; supply it. -0.79

Entry D61C needs its abundance fitness filled in; supply it. -0.407

Entry V27I needs its abundance fitness filled in; supply it. 0.003

Entry M48Q needs its abundance fitness filled in; supply it. 0.089

Entry V54L needs its abundance fitness filled in; supply it. -0.083

Entry A64G needs its abundance fitness filled in; supply it. -0.647

The values you see were collected from the Human Domainome abundance scans (Beltran et al. 2025).
